The origin of these recorded values is PubChem BioAssay (NCATS).

# ASSAY DETAILS: qHTS for differential inhibitors of proliferation of Plasmodium falciparum line GB4 (AID 1816);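 note: parasite growth measured after 72 h incubation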
# APPLIED CONDITIONS: Plasmodium falciparum GB4 proliferation inhibition; series mostly up to 28.7 µM
Records with an inconclusive call do not appear. Calls of active or inactive are those of the source. Calls come from the whole dose curve; as a rule, active = well fitted curve in the direction sought with a large enough effect; inconclusive = small, poorly fitted or top-dose-only effect, or another doubt; inactive = no such curve, though single readings can be large or run the other way.
Choose one outcome from this list and give only that: active, inactive

INSERT INTO results (compound, class_assignment) VALUES
  ('c1ccc2nc(N3CCNCC3)ccc2c1', 'active'),
  ('NC(N)=N/N=C/c1c(Cl)cccc1Cl', 'active');

// query I would be grateful if you could indicate the recorded call for C[N+](C)(C)CCCCCCCCCC[N+](C)(C)C .
// result active

// query Hi, do you know how O=C(O)c1nn(Cc2ccc(Cl)cc2Cl)c2ccccc12 came out in this test?
// result inactive

// query // outcome(item) with item = COc1ccc(C(=O)N2CCCC2=O)cc1
// result inactive

// query Field: outcome | Entry: CC(N)C(=O)OC(C)(C)Cc1ccc(Cl)cc1 (centres undefined)
// result active

// query Recorded test call requested for CNC(=O)Oc1ccc2c(c1)[C@]1(C)CCN(C)[C@@H]1N2C
// result active

// query How did this test come out for COC(=O)C1=CCCN(C)C1 ?
// result inactive

// query Would you mind telling me which call this test gave NC(=O)CN1CCCC1=O ?
// result inactive

----------
# APPLIED CONDITIONS: Ebola virus entry assay, blue channel fluorescence
Activity calls are given as the source filed them. The rule behind the calls is not given here.
// allowed return values: y (active), n (inactive)

Below are worked cases with known answers.
INSERT INTO measurements (compound, class_assignment) VALUES
  ('NS(=O)(=O)c1cc2c(cc1Cl)NC(CSCc1ccccc1)=NS2(=O)=O', 'n'),
  ('C#C[C@]1(O)C=C[C@H]2[C@@H]3CCC4=CC(=O)CC[C@@H]4[C@H]3CC[C@@]21CC', 'n'),
  ('FC(F)(F)C(Cl)Br (stereo unspecified)', 'n'),
  ('O=C1NCN(c2ccccc2)C12CCN(CCCOc1ccc(F)cc1)CC2', 'y'),
  ('O=C1C(c2[nH]c3ccccc3c2O)=Nc2ccccc21', 'n'),
  ('O=C(CCCN1CCC(n2c(=O)[nH]c3ccccc32)CC1)c1ccc(F)cc1', 'y');

// query What call does the record list for COc1ccnc2c1CCCCC2S(=O)c1nc2ccccc2[nH]1 (stereo unspecified) ?
// result n

// query Per the records of this test, what outcome belongs to CC(NCCC(c1ccccc1)c1ccccc1)c1ccccc1 (stereo unspecified) ?
// result y

// query For this compound, state the assay outcome: CC1=C2[C@H]3OC(=O)[C@@H](C)[C@@H]3CC[C@@]2(C)C=CC1=O
// result n

// query Hi team, can someone confirm the assay call for CC1(C)OC[C@@H](COC(=O)CCc2ccc(OC[C@@H](O)CNCCNC(=O)N3CCOCC3)cc2)O1 ?
// result n

// query Any idea what this test logged for N#C/C(=C1/SC[C@@H](c2ccc(Cl)cc2Cl)S1)n1ccnc1 ?
// result y

----------
Item-by-item account of activation
# ASSAY DETAILS: qHTS assay for small molecule activators of the nuclear factor-kappa B (NF-kB) signaling pathway (AID 651749); note: % of control where 0% means no effect
# APPLIED CONDITIONS: NF-kB-bla ME-180 cells, beta-lactamase FRET ratio, 16 h; hits give high values
Inconclusive results are not listed.
Unit % implied. Number only.

Some compounds with recorded activation:
INSERT INTO results (smiles_str, data_value) VALUES
  ('CN(C)C(=S)SSC(=S)N(C)C', -1.21),
  ('CCC(=O)O[C@H]1CC[C@H]2[C@@H]3CCC4=CC(=O)CC[C@]4(C)[C@H]3CC[C@]12C', -1.92),
  ('C[C@@H]1C[C@@H]([C@H](O)CC2CC(=O)NC(=O)C2)C(=O)[C@@H](C)C1', 5.34);

// moving on: another record for activation
// query Find the measured activation of O=c1n(Cl)c(=O)n(Cl)c(=O)n1Cl and report it.
// result -1.25
